Test system: SKBr3 cells
Assay: Cell killing assay (MTS), SKBr3 cells
Format: cell-based, human
Conditions: Homo sapiens, SK-BR-3, 96 h, read-out: IC50 nM
measuredAttribute: IC50 (nM)
Numbers only, in nM.

Briefly, IC50 measured for COc1cc2cc(c1Cl)N(C)C(=O)C[C@H](OC(=O)[C@H](C)N(C)C(=O)CCS)[C@]1(C)O[C@H]1[C@H](C)[C@@H]1C[C@@](O)(NC(=O)O1)[C@H](OC)/C=C/C=C(\C)C2 [Free drug DM1] : 47.6

Reference for the values: patent US11202837B2
